conditions-used: buffer; pH 7.4; 200.0 µM
Class rule met: solubility kinetic at least 0.02 mg/mL. Class rule not met: solubility kinetic below 0.02 mg/mL.

INSERT INTO results (compound, class_name) VALUES
  ('C[C@H](NC(=O)N1CCn2c1nc1ccccc12)C(=O)NC1CC1', 'rule met'),
  ('Cn1ccnc1Sc1ccccc1[N+](=O)[O-]', 'rule met'),
  ('CCc1nc2cc(Cl)c(Cl)cc2nc1CC', 'rule not met'),
  ('COc1ccc(NC(=O)C(Cc2ccccc2)n2cccc2)c(OC)c1 (stereo not given)', 'rule not met'),
  ('CN(C)Cc1c(O)ccc2ccccc12', 'rule met'),
  ('Cc1ccc(NC(=O)CC2(CC(=O)O)CCCC2)c(C)c1', 'rule met'),
  ('N#Cc1ccc(C(=O)Nc2ccc3ccccc3c2)cc1', 'rule not met'),
  ('CN(CC(=O)Nc1ccccc1Cl)C(=O)CN1C(=O)C2CC=CCC2C1=O (stereo not given)', 'rule met'),
  ('Cc1ccc(C(=O)Nc2ccc(NC(=O)c3cccs3)cc2)c(C)c1', 'rule not met'),
  ('O=C(COC(=O)/C=C/c1ccco1)Nc1ccccc1', 'rule not met'),
  ('N#Cc1ccccc1COC(=O)c1cc(=O)c2ccccc2o1', 'rule not met'),
  ('COc1cc(Oc2nc(C(F)(F)F)nc3ccccc23)ccc1C=O', 'rule not met'),
  ('O=C(NCCN1CCOCC1)c1cccc(Br)c1', 'rule met'),
  ('CCOC(=O)c1ccc(NC(=O)CC2SC3=NCCN3C2=O)cc1 (stereo not given)', 'rule met'),
  ('COc1ccccc1C(=O)NC(C)c1ccc(-n2ccnc2)cc1 (stereo not given)', 'rule met'),
  ('Cc1sc2nc(SCCO)n(-c3ccccc3)c(=O)c2c1C', 'rule not met'),
  ('NS(=O)(=O)c1ccc(NC(=O)c2cccc(Cl)c2)cc1', 'rule not met'),
  ('CN(C)S(=O)(=O)c1cccc(COc2cccnc2[N+](=O)[O-])c1', 'rule not met'),
  ('CN1CCN(c2ccc(CNC(=O)c3ccc4c(c3)OCCO4)cc2)CC1', 'rule met'),
  ('Cc1noc(C)c1C(=O)OCC(=O)Nc1ccc(C(N)=O)cc1', 'rule met'),
  ('Brc1ccccc1C1N=C(c2ccccc2)NO1 (stereo not given)', 'rule not met'),
  ('CCN1CCN(c2ccc(NC(=O)c3cnccn3)cc2)CC1', 'rule met'),
  ('CCN(CC(=O)Nc1c(F)cccc1F)C(=O)c1ccc(=O)[nH]c1', 'rule met'),
  ('Cc1c(C(=O)N(C)Cc2ccccc2)oc2c(Cl)cccc12', 'rule not met'),
  ('O=S(=O)(Cc1ccccc1Cl)NCc1ccccc1', 'rule met');

====

conditions-used: buffer; pH 7.4; 200.0 µM
measurement-name: log10(solubility kinetic) (log10 of the value in µg/mL)

INSERT INTO results (molecule, measurement_name, meas_value) VALUES
  ('O=C(Nc1nc2ccccc2[nH]1)C1CCC1', 'log10(solubility kinetic)', 0.78),
  ('Clc1cccc(CNCC2CCCO2)c1Cl (stereo not given)', 'log10(solubility kinetic)', 1.52),
  ('O=c1c([N+](=O)[O-])c(O)c2cccc3c2n1CCC3', 'log10(solubility kinetic)', 1.56),
  ('Cc1cc(C)cc(Nc2ncnc3nc[nH]c23)c1', 'log10(solubility kinetic)', 0.89),
  ('CCc1ccc(OCCOCCN2CCN(C)CC2)cc1.O=C(O)C(=O)O', 'log10(solubility kinetic)', 1.73),
  ('CC1CCCCC1NC(=O)COC(=O)/C=C/c1ccco1 (stereo not given)', 'log10(solubility kinetic)', 1.35),
  ('Cc1ccnc(NS(=O)(=O)c2ccc(NC(=O)c3oc4ccc(F)cc4c3C)cc2)n1', 'log10(solubility kinetic)', 0.20),
  ('O=C1CN(C(=O)c2ccc(Cl)nc2)c2ccccc2N1', 'log10(solubility kinetic)', 1.52),
  ('Br.COc1cccc(CNCC2CCCO2)c1 (stereo not given)', 'log10(solubility kinetic)', 1.64),
  ('O=C(O)c1ccc(NCCc2ccc(Cl)cc2)c([N+](=O)[O-])c1', 'log10(solubility kinetic)', 1.65),
  ('CC(C)COc1ccc(Br)cc1CNC(C)(C)C.Cl', 'log10(solubility kinetic)', 1.71),
  ('CN(c1ccc([N+](=O)[O-])cc1C(N)=O)C1CCCCC1', 'log10(solubility kinetic)', 1.58),
  ('COc1cccc(C(=O)N2CCOCC2)c1', 'log10(solubility kinetic)', 1.51),
  ('COc1c(Cl)cc(Cl)cc1C(=O)Nc1ccc(CN2CCOCC2)cc1', 'log10(solubility kinetic)', 0.41),
  ('S=C1NC2(CCCCCC2)N=C1c1ccccc1', 'log10(solubility kinetic)', 0.45),
  ('CC(C)C(OC(=O)c1cccs1)C(=O)NCc1ccccc1 (stereo not given)', 'log10(solubility kinetic)', 1.47),
  ('COc1cccc(Nc2ncc(C#N)c(N)n2)c1', 'log10(solubility kinetic)', 1.50),
  ('CC(C)(C)C(=O)Nc1ccc(/C=C/C(=O)c2ccco2)cc1', 'log10(solubility kinetic)', 1.46),
  ('Cc1cccc(C)c1OCC(=O)N1CCc2ccccc2C1', 'log10(solubility kinetic)', 1.54),
  ('O=c1[nH]c(-c2ccccc2)cnc1-c1ccccc1', 'log10(solubility kinetic)', -0.40),
  ('Cc1nc2ccc(NC(=O)c3ccc(=O)[nH]c3)cc2s1', 'log10(solubility kinetic)', 1.14),
  ('O=C(NCc1ccccc1Cl)c1ccc(Br)o1', 'log10(solubility kinetic)', 1.62),
  ('CN(CCOc1ccccc1)CCOc1ccccc1', 'log10(solubility kinetic)', 1.52),
  ('CCc1ccc(S(=O)(=O)N2CCN(c3ncccn3)CC2)cc1', 'log10(solubility kinetic)', 0.23),
  ('Cc1ccc(Oc2nc3c(c(=O)n(C)c(=O)n3C)n2C)cc1C', 'log10(solubility kinetic)', 1.60),
  ('Cc1ccccc1/C=C\c1nc2ccccc2c(=O)[nH]1', 'log10(solubility kinetic)', 0.08),
  ('CCOC(=O)C1=C(CC)Nc2ccccc2N=C1N', 'log10(solubility kinetic)', 1.16);

====

List of solubility kinetic values.
conditions-used: buffer; pH 7.4; 200.0 µM
measurement-name: solubility kinetic (µg/mL)

INSERT INTO assay_data (compound, qualifier_symbol, meas_value) VALUES
  ('Cl.NCc1ccccc1CS(=O)(=O)N1CCOCC1', '>', 46),
  ('CC(=O)c1c(C)[nH]c(=S)c(C#N)c1-c1ccc(F)cc1', '>', 42.9),
  ('Br.Oc1ccc(-c2cn3ccccc3n2)cc1', '=', 36.5),
  ('CC(C)NC(=O)c1ccc2c(=O)n(CC3CCCO3)c(=S)[nH]c2c1 (stereo not given)', '=', 4.4),
  ('CCOC(=O)c1csc(NC(=O)c2cc3ccccc3o2)n1', '=', 0.8),
  ('NC(=O)c1c(NC(=O)c2ccccc2)sc2c1CCC2', '=', 1.3),
  ('Cc1cccc(C)c1NC(=O)CNC(=O)c1ccc2c(c1)NC(=O)CS2', '=', 41),
  ('Cc1ccc(C)c(OCCNc2ncccc2[N+](=O)[O-])c1', '=', 0.3),
  ('CCSc1nnc(NC(=O)c2c(C)noc2C)s1', '>', 42.7),
  ('CC(C)(C)C(=O)/C(C#N)=C/c1cccs1', '=', 10.9),
  ('CCCN(CC(=O)Nc1ccccc1OC)C(=O)c1ccccn1', '>', 49.1),
  ('CC(C)(C)C(=O)NC(=S)Nc1cccc(C(=O)O)c1', '>', 42.1),
  ('Cc1cc(C)n2nc(SCCC(=O)NCc3ccccc3)nc2n1', '>', 51.2),
  ('COC(=O)c1ccccc1NC(=O)NC1CCCCC1', '=', 2.6),
  ('CCc1nc2ccccc2n1CC(O)COCC1CC=CCC1 (stereo not given)', '>', 47.2),
  ('O=C1NC(C(=O)O)=CC(c2ccc([N+](=O)[O-])cc2)N1 (stereo not given)', '>', 39.5),
  ('CCCCn1c(N)c(N(CC)C(=O)C2CCC2)c(=O)[nH]c1=O', '>', 46.3),
  ('Cn1c(Nc2ccccc2)cc(=O)n(C)c1=O', '>', 34.7),
  ('C=CCNc1nc2ccccc2nc1NS(=O)(=O)c1ccc(OC)cc1', '=', 45.9),
  ('COc1ccc(-n2c(C)c(C)c3c(NCCN(C)C)ncnc32)cc1', '>', 50.9),
  ('S=C1NCN(CCc2ccccc2)CN1', '>', 33.2),
  ('CCN(CC)c1ccc(N)cc1S(=O)(=O)Nc1ccccc1OC', '=', 41.8),
  ('COc1ccc(NS(=O)(=O)c2ccc(C(=O)N3CCCCCC3)cc2)cc1', '>', 58.3),
  ('O=C(O)c1ccccc1C(=O)Nc1nc(-c2ccc3ccccc3c2)cs1', '>', 56.2),
  ('O=C(Nc1ccc(N2CCOCC2)nc1)c1ccccc1Cl', '=', 42);
